Numbers sourced from patent US20150140169.

assay.system: T1, alpha-s1 casein from Bos taurus
T1 chain: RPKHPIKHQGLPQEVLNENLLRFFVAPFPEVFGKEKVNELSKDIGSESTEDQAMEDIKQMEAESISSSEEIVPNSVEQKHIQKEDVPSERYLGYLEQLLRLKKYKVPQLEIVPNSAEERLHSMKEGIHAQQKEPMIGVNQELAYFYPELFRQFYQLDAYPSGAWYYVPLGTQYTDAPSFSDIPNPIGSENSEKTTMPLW
outcome.measure: (αSN1-1)/(αSN1), 24 hours, 11° C.
Number only, no unit.

Lab book: (αSN1-1)/(αSN1), 24 hours, 11° C. of camel chymosin variant #163 (L295T) (protein) GKVAREPLTSYLDSQYFGKIYIGTPPQEFTVVFDTGSSDLWVPSIYCKSNVCKNHHRFDPRKSSTFRNLGKPLSIHYGTGSMEGFLGYDTVTVSNIVDPNQTVGLSTEQPGEVFTYSEFDGILGLAYPSLASEYSVPVFDNMMDRHLVARDLFSVYMDRNGQGSMLTLGAIDPSYYTGSLHWVPVTLQQYWQFTVDSVTINGVAVACVGGCQAILDTGTSVLFGPSSDILKIQMAIGATENRYGEFDVNCGNLRSMPTVVFEINGRDYPLSPSAYTSKDQGFCTSGFQGDNNSETWILGDVFIREYYSVFDRANNRVGLAKAI noted as 1.6
